Provenance of the data: the RNAGym collection of RNA variant scans (doi:10.1073/pnas.2313332121)

B1: TPR t1 (parent)
chain: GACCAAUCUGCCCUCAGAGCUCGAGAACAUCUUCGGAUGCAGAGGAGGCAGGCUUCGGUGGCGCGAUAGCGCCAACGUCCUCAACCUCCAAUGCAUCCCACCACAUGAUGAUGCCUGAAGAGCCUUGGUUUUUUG

# Variants of: B1
# measurement-description: polymerase ribozyme fitness, log enrichment relative to wild type (log ratio); higher = more active; in vitro selection for triplet polymerase activity
property: polymerase ribozyme fitness (log ratio)

{"mutation-name": "A26G G45A G48U", "assay-value": -3.98}
{"mutation-name": "C49U C123G G128C", "assay-value": -1.69}
{"mutation-name": "C3U C56U G69C C76G C115U G127U", "assay-value": -4.79}
{"mutation-name": "A16U G17A G93A", "assay-value": -4.25}
{"mutation-name": "U59G G122A", "assay-value": -1.35}
{"mutation-name": "G57U G93A", "assay-value": 0.0639}
{"mutation-name": "U14A C49G", "assay-value": -2.67}
{"mutation-name": "C86U U112A C123U", "assay-value": 0.628}
{"mutation-name": "U33C G52A G58C G69A C104U U109A A111G U112A", "assay-value": -6.93}
{"mutation-name": "C3U U7C G48U C70U", "assay-value": -1.98}
{"mutation-name": "A84U G93A", "assay-value": -1.11}
{"mutation-name": "C62U", "assay-value": -0.118}
{"mutation-name": "C8U G48C G69U", "assay-value": 0.0683}
{"mutation-name": "G52U G57U G128C", "assay-value": -4.79}
{"mutation-name": "G42A C70A C89A C124U", "assay-value": -4}
{"mutation-name": "G60U C80U C123A", "assay-value": -1.11}
{"mutation-name": "G17U C70G", "assay-value": -4.78}
{"mutation-name": "G48A C82G", "assay-value": -0.457}
{"mutation-name": "C11G A37C A46U G120C G128C", "assay-value": -0.871}
{"mutation-name": "U81G A95G", "assay-value": -4.01}
{"mutation-name": "C8G C22A C53U C89A C114U G117A G135A", "assay-value": -3.7}
{"mutation-name": "C12G A50U G117C U125C", "assay-value": -6.32}
{"mutation-name": "C11A C20U C34A C53A C94G A121U", "assay-value": -3.61}
{"mutation-name": "U92C U112A", "assay-value": -0.53}
{"mutation-name": "G10A C11G C70G", "assay-value": -2.13}
{"mutation-name": "C20G U38G C76G", "assay-value": -5.6}
{"mutation-name": "C101G G122C C124A U126A", "assay-value": -3.82}
{"mutation-name": "C56U C76G", "assay-value": -2.08}
{"mutation-name": "C11A A37C U54C", "assay-value": -2.16}
{"mutation-name": "A50U G63A U106A G135C", "assay-value": -2.47}
{"mutation-name": "C56A C80G C86U", "assay-value": -3.12}
{"mutation-name": "U7G G69U", "assay-value": 0.479}
{"mutation-name": "U81A U112A", "assay-value": 0.19}
{"mutation-name": "C8G A43U A95U U109A C123G", "assay-value": -5.23}
{"mutation-name": "G63U C102A", "assay-value": -3.78}
{"mutation-name": "C64U C82U U109A G120U", "assay-value": -6.78}
{"mutation-name": "C20G C40U", "assay-value": -2.61}
{"mutation-name": "U78C G110C", "assay-value": -3.67}
{"mutation-name": "C40A C56U", "assay-value": -0.58}
{"mutation-name": "U87A U106G", "assay-value": -1.35}
{"mutation-name": "G45C A50U", "assay-value": -2.42}
{"mutation-name": "G48U G63A C79G", "assay-value": -6.13}
{"mutation-name": "G47C G58A A121G G135U", "assay-value": 0.038}
{"mutation-name": "C12A C40U U59A A111G C124A", "assay-value": -0.777}
{"mutation-name": "C49G G69C U78C", "assay-value": -2.8}
{"mutation-name": "A91C U133A", "assay-value": -0.906}
{"mutation-name": "U54C C72U C89U A111C", "assay-value": -0.0742}
{"mutation-name": "A27G G42A C73G", "assay-value": -5.22}
{"mutation-name": "C70A C124U", "assay-value": -0.369}
{"mutation-name": "C73G G93C", "assay-value": -2.05}
{"mutation-name": "A26U C49U A66G A84C C124G", "assay-value": -4.9}
{"mutation-name": "G48C C49A C88U A95G", "assay-value": -0.72}
{"mutation-name": "G51A C56U G93U", "assay-value": -3.4}
{"mutation-name": "A24U G39A", "assay-value": -7.92}
{"mutation-name": "C40U G42A C114U", "assay-value": -1.92}
{"mutation-name": "C12G C13A G42C G69A G117C A118U U134G", "assay-value": -4.53}
{"mutation-name": "A6C G44A G61U", "assay-value": -0.646}
{"mutation-name": "A2U C8U G69U C82G C114U", "assay-value": -2.12}
{"mutation-name": "C64A U78G", "assay-value": -6.68}
{"mutation-name": "G10A C56U A74C A75U G93U", "assay-value": -0.9}
{"mutation-name": "U59G C79A A103G", "assay-value": -5.54}
{"mutation-name": "G51C G58A A100C C124U", "assay-value": -4.88}
{"mutation-name": "C8G C62U U87A U112G G113U C123U G127A", "assay-value": -4.35}
{"mutation-name": "G47C G61A", "assay-value": -0.75}
{"mutation-name": "A6C C73G G93U G128U", "assay-value": -5.16}
{"mutation-name": "G69U U81G U116C", "assay-value": -1.49}
{"mutation-name": "C22U G60A", "assay-value": -3.85}
{"mutation-name": "G51U U55G C102U", "assay-value": -6.73}
